# credit: patent US8173645B2

List of pEC50 values.
target: glucokinase (GK), residues 12-465 of the human enzyme (Homo sapiens, UniProt P35557); construct: I.D. No. 1 corresponds to residues 12-465 of glucokinase; made in house; host or cells: E. coli DH10b-Tlr; assay: Enzymatic glucokinase activity assay (KinaseGlo luminescence, ATP consumption); format: biochemical; settings: GK activation; 5 μM ATP, 5 mM Glucose; Kact = concentration giving 50% of the maximal increase in GK activity; read-out: pKact
Sequence (P35557 with tags, fused parts or gaps isoform P35557-2): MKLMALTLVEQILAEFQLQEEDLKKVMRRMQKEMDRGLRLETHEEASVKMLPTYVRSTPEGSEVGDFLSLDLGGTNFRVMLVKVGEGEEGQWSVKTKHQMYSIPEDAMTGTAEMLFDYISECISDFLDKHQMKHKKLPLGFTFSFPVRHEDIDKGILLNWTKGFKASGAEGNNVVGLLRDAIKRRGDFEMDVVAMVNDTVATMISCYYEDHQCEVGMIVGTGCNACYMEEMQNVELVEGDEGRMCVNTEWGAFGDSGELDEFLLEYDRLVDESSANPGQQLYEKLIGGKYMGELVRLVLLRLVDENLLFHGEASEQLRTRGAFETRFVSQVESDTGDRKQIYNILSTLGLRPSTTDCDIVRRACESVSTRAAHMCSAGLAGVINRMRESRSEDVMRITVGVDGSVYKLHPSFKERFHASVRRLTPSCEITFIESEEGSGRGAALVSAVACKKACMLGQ
pEC50: −log10 of the molar value.
MEASUREMENT LABEL: pEC50

• O=C(Nc1nccs1)[C@H](CC1CCCCC1)N1CCN(S(=O)(=O)c2ccc3ccccc3c2)CC1=O = 5.90 to 6.10
• O=C(Nc1nccs1)[C@H](CC1CCCCC1)N1CCN(S(=O)(=O)Cc2ccc(C(F)(F)F)cc2)CC1=O = ≤ 5.50
• Cc1nc(C)c(S(=O)(=O)N2CCN([C@@H](CC3CCCCC3)C(=O)Nc3nccs3)C(=O)C2)s1 = ≤ 5.50
• O=C(Nc1nccs1)[C@H](CC1CCCCC1)N1CCN2[C@@H](CCS2(=O)=O)C1=O = ≤ 5.50
